Tested on: Ld39 promastigotes (SSG-resistant)
assay: In vitro anti-promastigote activity, Ld39
Type: cell-based, Leishmania donovani
measurement.conditions: Leishmania donovani, 72 h, read-out: Anti-promastigotes activity (IC50, μM) Ld39
Quick list: log10 of IC50 per entry.
experimental.endpoint: log10 of IC50 (log10 of the value in µM)

>>> endpoint_result("O=c1cc(-c2ccc(OCCOCCN(CCCc3ccccc3)CCOCCOc3ccc(-c4cc(=O)c5ccccc5o4)cc3)cc2)oc2ccccc12 [Compound 26]")
1.26
>>> endpoint_result("CS(=O)(=O)N(CCOCCOc1ccc(-c2cc(=O)c3ccccc3o2)cc1)CCOCCOc1ccc(-c2cc(=O)c3ccccc3o2)cc1 [Compound 24]")
0.18
>>> endpoint_result("O=c1cc(-c2ccc(OCCOCCN(CCOCCOc3ccc(-c4cc(=O)c5ccccc5o4)cc3)Cc3ccccc3)cc2)oc2ccccc12 [Compound 18]")
1.09
>>> endpoint_result("O=c1cc(-c2ccc(OCCOCCN(CCOCCOc3ccc(-c4cc(=O)c5ccccc5o4)cc3)Cc3ccncc3)cc2)oc2ccccc12 [Compound 21]")
-0.72
>>> endpoint_result("O=c1cc(-c2ccc(OCCOCCN(CCOCCOc3ccc(-c4cc(=O)c5ccccc5o4)cc3)Cc3ccccn3)cc2)oc2ccccc12 [Compound 22]")
0.38
>>> endpoint_result("O=c1cc(-c2ccc(OCCOCCNCCOCCOc3ccc(-c4cc(=O)c5ccccc5o4)cc3)cc2)oc2ccccc12 [Compound 12a]")
0.36
>>> endpoint_result("CC(C)(C)OC(=O)N(CCOCCOc1ccc(-c2cc(=O)c3ccccc3o2)cc1)CCOCCOc1ccc(-c2cc(=O)c3ccccc3o2)cc1 [Compound 16a]")
0.20
